Attribute: pIC50
# Test Protocol: Inhibition of rat intestinal maltase
# Type: tissue-based, Intestine
pIC50: −log10 of the molar value.

Compound | pIC50
C[C@H]1O[C@H](O[C@H]2[C@H](O)[C@@H](O)[C@@H](O[C@H]3[C@H](O)[C@@H](O)C(O)O[C@@H]3CO)O[C@@H]2CO)[C@H](O)[C@@H](O)[C@@H]1N[C@H]1C=C(CO)[C@@H](O)[C@H](O)[C@H]1O (stereo partly drawn) | 5.77
CCCCCCCC[C@@H](O)[C@H](OS(=O)(=O)[O-])[C@H](O)C[S@+]1C[C@@H](O)[C@H](O)[C@H]1CO | 5.14
CCCCCC[C@@H](O)[C@H](OS(=O)(=O)[O-])[C@H](O)C[S@+]1C[C@@H](O)[C@H](O)[C@H]1CO | 5.11

* * *

# Test Protocol: Inhibition of rat intestinal isomaltase
# Assay type: tissue-based, Intestine
pIC50: −log10 of the molar value.

Molecule | pIC50
CCC[C@@H](O)[C@H](O)[C@H](O)C[S@+]1C[C@@H](O)[C@H](O)[C@H]1CO | 6.31
CCCCCCCCCC[C@@H](O)[C@H](OS(=O)(=O)[O-])[C@H](O)C[S@+]1C[C@@H](O)[C@H](O)[C@H]1CO | 5.36
CCCCCCCC[C@@H](O)[C@H](OS(=O)(=O)[O-])[C@H](O)C[S@+]1C[C@@H](O)[C@H](O)[C@H]1CO | 5.27
CCCCCC[C@@H](O)[C@H](OS(=O)(=O)[O-])[C@H](O)C[S@+]1C[C@@H](O)[C@H](O)[C@H]1CO | 5.32
CCC[C@@H](O)[C@H](OS(=O)(=O)[O-])[C@H](O)C[S@+]1C[C@@H](O)[C@H](O)[C@H]1CO | 5.54
CCCCCCCC[C@@H](O)[C@H](O)[C@H](O)C[S@+]1C[C@@H](O)[C@H](O)[C@H]1CO | 6.40
C[C@H]1O[C@H](O[C@H]2[C@H](O)[C@@H](O)[C@@H](O[C@H]3[C@H](O)[C@@H](O)C(O)O[C@@H]3CO)O[C@@H]2CO)[C@H](O)[C@@H](O)[C@@H]1N[C@H]1C=C(CO)[C@@H](O)[C@H](O)[C@H]1O (some centres not stated) | 3.19

* * *

Attribute: IC50
# Target Of Assay: Maltase-glucoamylase (Homo sapiens, UniProt O43451)
# Sequence (O43451 whole entry): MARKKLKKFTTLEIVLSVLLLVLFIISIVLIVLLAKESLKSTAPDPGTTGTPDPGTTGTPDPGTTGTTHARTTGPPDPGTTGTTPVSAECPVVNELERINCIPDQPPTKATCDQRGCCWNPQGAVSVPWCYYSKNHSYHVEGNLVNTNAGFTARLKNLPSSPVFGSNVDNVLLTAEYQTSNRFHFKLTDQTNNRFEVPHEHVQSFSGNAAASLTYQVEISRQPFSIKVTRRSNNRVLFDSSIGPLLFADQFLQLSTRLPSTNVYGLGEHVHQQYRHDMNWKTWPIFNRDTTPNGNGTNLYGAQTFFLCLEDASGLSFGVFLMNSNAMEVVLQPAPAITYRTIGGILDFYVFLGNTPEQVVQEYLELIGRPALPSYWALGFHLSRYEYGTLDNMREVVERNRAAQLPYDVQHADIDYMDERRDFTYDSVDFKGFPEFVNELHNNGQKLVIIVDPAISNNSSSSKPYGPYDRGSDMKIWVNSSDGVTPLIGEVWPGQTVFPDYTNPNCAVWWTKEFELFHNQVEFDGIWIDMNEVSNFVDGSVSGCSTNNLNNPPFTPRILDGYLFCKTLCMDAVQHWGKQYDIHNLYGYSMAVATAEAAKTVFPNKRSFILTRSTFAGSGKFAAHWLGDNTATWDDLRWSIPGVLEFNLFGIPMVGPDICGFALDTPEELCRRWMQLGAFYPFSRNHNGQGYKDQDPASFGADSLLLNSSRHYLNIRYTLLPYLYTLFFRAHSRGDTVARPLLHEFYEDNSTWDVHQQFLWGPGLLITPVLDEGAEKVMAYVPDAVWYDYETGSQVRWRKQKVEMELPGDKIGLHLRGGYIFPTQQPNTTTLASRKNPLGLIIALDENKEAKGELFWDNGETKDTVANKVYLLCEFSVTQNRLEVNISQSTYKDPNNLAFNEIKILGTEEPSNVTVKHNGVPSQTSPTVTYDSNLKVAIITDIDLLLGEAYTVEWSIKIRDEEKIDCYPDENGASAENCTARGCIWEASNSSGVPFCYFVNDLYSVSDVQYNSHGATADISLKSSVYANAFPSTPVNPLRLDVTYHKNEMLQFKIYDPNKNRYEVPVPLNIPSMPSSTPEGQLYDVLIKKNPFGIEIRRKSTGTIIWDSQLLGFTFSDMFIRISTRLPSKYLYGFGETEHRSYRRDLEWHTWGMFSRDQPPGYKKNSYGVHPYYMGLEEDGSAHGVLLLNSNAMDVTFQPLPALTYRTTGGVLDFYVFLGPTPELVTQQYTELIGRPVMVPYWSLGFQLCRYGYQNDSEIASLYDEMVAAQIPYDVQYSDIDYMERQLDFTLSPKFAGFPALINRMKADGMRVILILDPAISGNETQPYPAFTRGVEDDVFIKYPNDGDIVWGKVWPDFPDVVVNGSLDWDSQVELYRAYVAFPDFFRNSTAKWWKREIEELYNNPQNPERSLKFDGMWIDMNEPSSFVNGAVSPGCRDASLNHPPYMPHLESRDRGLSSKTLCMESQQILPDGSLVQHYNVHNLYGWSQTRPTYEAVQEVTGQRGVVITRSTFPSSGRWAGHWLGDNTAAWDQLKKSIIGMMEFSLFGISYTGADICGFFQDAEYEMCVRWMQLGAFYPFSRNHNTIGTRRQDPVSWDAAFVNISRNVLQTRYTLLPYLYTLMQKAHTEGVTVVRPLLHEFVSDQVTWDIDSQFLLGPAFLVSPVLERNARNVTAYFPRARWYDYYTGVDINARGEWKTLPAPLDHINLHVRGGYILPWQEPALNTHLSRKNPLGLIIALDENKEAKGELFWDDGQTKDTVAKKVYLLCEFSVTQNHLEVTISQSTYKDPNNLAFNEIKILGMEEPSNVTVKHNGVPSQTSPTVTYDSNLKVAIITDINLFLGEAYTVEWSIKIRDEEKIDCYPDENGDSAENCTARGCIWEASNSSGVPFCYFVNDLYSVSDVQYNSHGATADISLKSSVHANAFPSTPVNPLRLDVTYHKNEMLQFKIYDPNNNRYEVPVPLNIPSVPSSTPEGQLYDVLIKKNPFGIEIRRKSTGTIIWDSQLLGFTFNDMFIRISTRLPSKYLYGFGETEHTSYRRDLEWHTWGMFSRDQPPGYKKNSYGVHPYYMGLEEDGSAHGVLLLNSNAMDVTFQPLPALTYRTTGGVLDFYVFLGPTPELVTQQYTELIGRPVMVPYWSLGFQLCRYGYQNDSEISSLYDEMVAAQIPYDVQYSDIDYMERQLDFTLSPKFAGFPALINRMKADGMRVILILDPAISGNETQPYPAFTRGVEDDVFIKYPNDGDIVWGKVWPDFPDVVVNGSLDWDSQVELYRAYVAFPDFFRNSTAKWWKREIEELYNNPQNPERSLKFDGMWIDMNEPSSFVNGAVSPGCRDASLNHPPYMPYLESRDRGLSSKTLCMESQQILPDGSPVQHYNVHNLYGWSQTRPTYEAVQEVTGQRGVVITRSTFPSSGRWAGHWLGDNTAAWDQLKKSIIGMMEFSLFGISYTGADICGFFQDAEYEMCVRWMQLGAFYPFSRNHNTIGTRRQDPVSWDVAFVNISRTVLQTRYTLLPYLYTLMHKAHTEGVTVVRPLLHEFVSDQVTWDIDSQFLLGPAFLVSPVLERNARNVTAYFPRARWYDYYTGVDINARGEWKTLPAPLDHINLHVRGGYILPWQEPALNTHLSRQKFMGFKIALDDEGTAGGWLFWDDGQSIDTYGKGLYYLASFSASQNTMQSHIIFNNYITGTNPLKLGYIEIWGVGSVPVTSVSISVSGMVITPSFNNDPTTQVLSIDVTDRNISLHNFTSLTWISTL
# Test Protocol: Inhibition of human intestinal maltase
# Assay type: tissue-based, Intestine

Smiles Record | Reading Unit | IC50
CCCCCCCC[C@@H](O)[C@H](O)[C@H](O)C[S@+]1C[C@@H](O)[C@H](O)[C@H]1CO | µM | 2
CCC[C@@H](O)[C@H](OS(=O)(=O)[O-])[C@H](O)C[S@+]1C[C@@H](O)[C@H](O)[C@H]1CO | µM | 4.8
CCC[C@@H](O)[C@H](O)[C@H](O)C[S@+]1C[C@@H](O)[C@H](O)[C@H]1CO | µM | 5
CCCCCCCC[C@@H](O)[C@H](OS(=O)(=O)[O-])[C@H](O)C[S@+]1C[C@@H](O)[C@H](O)[C@H]1CO | µM | 1.2
CCCCCC[C@@H](O)[C@H](OS(=O)(=O)[O-])[C@H](O)C[S@+]1C[C@@H](O)[C@H](O)[C@H]1CO | µM | 1.7
CCCCCCCCCC[C@@H](O)[C@H](OS(=O)(=O)[O-])[C@H](O)C[S@+]1C[C@@H](O)[C@H](O)[C@H]1CO | µM | 1.5

* * *

# Test Protocol: Inhibition of rat intestinal maltase
# Type: tissue-based, Intestine
Assay Endpoint: IC50 (µM)

Smiles Record | Endpoint Result
CCCCCCCCCC[C@@H](O)[C@H](OS(=O)(=O)[O-])[C@H](O)C[S@+]1C[C@@H](O)[C@H](O)[C@H]1CO | 6.3
CCC[C@@H](O)[C@H](OS(=O)(=O)[O-])[C@H](O)C[S@+]1C[C@@H](O)[C@H](O)[C@H]1CO | 5.4
CCC[C@@H](O)[C@H](O)[C@H](O)C[S@+]1C[C@@H](O)[C@H](O)[C@H]1CO | 4.8
CCCCCCCC[C@@H](O)[C@H](O)[C@H](O)C[S@+]1C[C@@H](O)[C@H](O)[C@H]1CO | 2.5

* * *

# Test Protocol: Inhibition of rat intestinal sucrase
# Type: tissue-based, Intestine
Attribute: IC50
Assay Endpoint: IC50 (nM)

Smiles Record | Endpoint Result
CCCCCCCC[C@@H](O)[C@H](O)[C@H](O)C[S@+]1C[C@@H](O)[C@H](O)[C@H]1CO | 380
CCC[C@@H](O)[C@H](O)[C@H](O)C[S@+]1C[C@@H](O)[C@H](O)[C@H]1CO | 1400
CCCCCCCCCC[C@@H](O)[C@H](OS(=O)(=O)[O-])[C@H](O)C[S@+]1C[C@@H](O)[C@H](O)[C@H]1CO | 170

* * *

Attribute: Ki
# Target Of Assay: Maltase-glucoamylase (Homo sapiens, UniProt O43451)
# Test Protocol: Inhibition of recombinant human maltase-glucoamylase using p-nitrophenyl-alpha-D-glucopyranoside as substrate incubated for 35 mins by microtiter plate reader analysis
Assay Endpoint: Ki (µM)

Compound | Reading Unit | Endpoint Result
CCCC[S+]1C[C@@H](O)[C@H](O)[C@H]1CO (single isomer, unassigned) | µM | 32
CCCCCCCCCCCCCC[S@+]1C[C@@H](O)[C@H](O)[C@H]1CO | µM | 6

* * *

# Test Protocol: Inhibition of rat intestinal maltase using maltose as substrate incubated for 30 mins and immediately heated for 2 mins by glucose oxidase method
# Assay type: tissue-based, Intestine

Molecule | IC50, µM
[O-][C@@H](CO)[C@H](O)C[S@+]1C[C@@H](O)[C@H](O)[C@H]1CO [NEOSALACINOL] | 8
O=S(=O)([O-])O[C@@H](CO)[C@H](O)C[S@+]1C[C@@H](O)[C@H](O)[C@H]1CO [SALACINOL] | 5.2

* * *

# Test Protocol: Inhibition of rat intestinal sucrase
# Format: tissue-based, Intestine
pIC50: −log10 of the molar value.
Attribute: pIC50
Assay Endpoint: pIC50

Molecule | Assay Endpoint | Endpoint Result
CCCCCC[C@@H](O)[C@H](OS(=O)(=O)[O-])[C@H](O)C[S@+]1C[C@@H](O)[C@H](O)[C@H]1CO | pIC50 | 6.54
C[C@H]1O[C@H](O[C@H]2[C@H](O)[C@@H](O)[C@@H](O[C@H]3[C@H](O)[C@@H](O)C(O)O[C@@H]3CO)O[C@@H]2CO)[C@H](O)[C@@H](O)[C@@H]1N[C@H]1C=C(CO)[C@@H](O)[C@H](O)[C@H]1O (some centres undefined) [ACARBOSE] | pIC50 | 5.82
CCCCCCCC[C@@H](O)[C@H](OS(=O)(=O)[O-])[C@H](O)C[S@+]1C[C@@H](O)[C@H](O)[C@H]1CO | pIC50 | 6.82
CCC[C@@H](O)[C@H](OS(=O)(=O)[O-])[C@H](O)C[S@+]1C[C@@H](O)[C@H](O)[C@H]1CO | pIC50 | 6.14

Entry source: ChEMBL document CHEMBL4673376
